- Assay Protocol: Aqueous Solubility (PBS, pH 7.4)
- Format: physicochemical
- Condition Info: pH 7.4, test concentration 2.0E−04 M, 24 hours, RT
Metric: solubility at 24 h
A bare number is not enough; add the unit after it.

Q: # input compound: Cc1ccc(F)cc1C[C@H](C)Nc1cc[nH]c(=O)c1-c1nc2cc3c(cc2[nH]1)C(=O)N(CCN1CCCC1)C3 ; wanted: its solubility at 24 h
A: 34 µM

* * *

- Assay Protocol: Aqueous Solubility (PBS, pH 7.4)
- Format: physicochemical
- Condition Info: pH 7.4, 2.0E−04 M, individual data
Structures can show the parent of a compound that is named as a salt.
So basically: is Solubility 1st/2nd under 100 μm? Then class 1. Not under? Then class 0.

O=C1NC(=O)C(c2ccccc2)(c2ccccc2)N1 [Phenytoin]    class 1

Q: Problem: For the compound O=C(CCCN1CCC(O)(c2ccc(Cl)cc2)CC1)c1ccc(F)cc1 [Haloperidol] , is Solubility 1st/2nd under 100 μm?
A: class 1

Q: Problem: For the compound CO[C@H]1/C=C/O[C@@]2(C)Oc3c(C)c(O)c4c(O)c(c(/C=N/N5CCN(C)CC5)c(O)c4c3C2=O)NC(=O)/C(C)=C\C=C\[C@H](C)[C@H](O)[C@@H](C)[C@@H](O)[C@@H](C)[C@H](OC(C)=O)[C@@H]1C [Rifampicin] , is Solubility 1st/2nd under 100 μm?
A: class 0

Q: Problem: For the compound CC(=O)N1CCN(c2ccc(OCC3COC(Cn4ccnc4)(c4ccc(Cl)cc4Cl)O3)cc2)CC1 (stereo not drawn) [Ketoconazole, ketoconazole, reference compound] , is Solubility 1st/2nd under 100 μm?
A: class 0

Q: Problem: For the compound CC/C(=C(/CC)c1ccc(O)cc1)c1ccc(O)cc1 [Diethylstilbestrol] , is Solubility 1st/2nd under 100 μm?
A: class 1

Q: Problem: For the compound COCCc1ccc(OCC(O)CNC(C)C)cc1 (stereo not drawn) [Metoprolol tartrate] , is Solubility 1st/2nd under 100 μm?
A: class 0

* * *

- System: non-ALKdependent cell lines
- Assay Protocol: Cell proliferation inhibition, non-ALK-dependent control cell lines
- Assay type: cell-based
- Condition Info: 12 unrelated cell lines; read-out: Lowest IC50s for non-ALK-dependent cell lines
pIC50: −log10 of the molar value.
Metric: pIC50

Q: # input molecule: Cc1ccc(F)cc1C[C@H](C)Nc1cc[nH]c(=O)c1-c1nc2cc3c(cc2[nH]1)C(=O)N(CCN1CCCC1)C3 [compound (II)] ; wanted: its pIC50
A: ~5.60

* * *

For each of the compounds below, state its recovery at 10 µM.
- Assay Protocol: Caco-2 (TC7) A-B Permeability test (pH 6.5/7.4)
- Condition Info: human, Caco-2, pH 6.5, Present Recovery 2nd, A-B Permeability (TC7, pH 6.5/7.4), test concentration 1.0E−05 M, 2nd replicate
Give bare numbers, in %.

These recorded examples may help you get a feel for the data.
CC(CCc1ccccc1)NCC(O)c1ccc(O)c(C(N)=O)c1 (stereo not shown)    88
CNC(=C[N+](=O)[O-])NCCSCc1ccc(CN(C)C)o1    109
COc1cc2c(c(OC)c1OC)-c1ccc(OC)c(=O)cc1[C@@H](NC(C)=O)CC2    65

Q: # input compound: Cc1ccc(F)cc1C[C@H](C)Nc1cc[nH]c(=O)c1-c1nc2cc3c(cc2[nH]1)C(=O)N(CCN1CCCC1)C3 ; wanted: its recovery at 10 µM
A: 47

* * *

For each of the molecules below, state its solubility.
- Assay Protocol: Aqueous Solubility (PBS, pH 7.4)
- Assay type: physicochemical
- Condition Info: pH 7.4, PBS, pH 7.4, 2.0E−04 M, individual data, read-out: Solubility 1st/2nd
Structures can show the parent of a compound that is named as a salt.
Give bare numbers, in µM.

O=C(CCCN1CCC(O)(c2ccc(Cl)cc2)CC1)c1ccc(F)cc1    62.5
CC/C(=C(/CC)c1ccc(O)cc1)c1ccc(O)cc1    8.6
CC(=O)N1CCN(c2ccc(OCC3COC(Cn4ccnc4)(c4ccc(Cl)cc4Cl)O3)cc2)CC1 (stereo not shown) [Ketoconazole, ketoconazole, reference compound]    107
O=C1NC(=O)C(c2ccccc2)(c2ccccc2)N1    87.7
Cc1ccc(F)cc1C[C@H](C)Nc1cc[nH]c(=O)c1-c1nc2cc3c(cc2[nH]1)C(=O)N(CCN1CCCC1)C3    34
COCCc1ccc(OCC(O)CNC(C)C)cc1 (stereo not shown) [Metoprolol tartrate]    190

Now look at this entry.
Q: # input molecule: CO[C@H]1/C=C/O[C@@]2(C)Oc3c(C)c(O)c4c(O)c(c(/C=N/N5CCN(C)CC5)c(O)c4c3C2=O)NC(=O)/C(C)=C\C=C\[C@H](C)[C@H](O)[C@@H](C)[C@@H](O)[C@@H](C)[C@H](OC(C)=O)[C@@H]1C ; wanted: its solubility
A: 181

* * *

- Assay Protocol: Caco-2 (TC7) A-B Permeability test (pH 6.5/7.4)
- Condition Info: human, Caco-2, pH 6.5, Caco-2 (TC7) A-B permeability coefficient, pH 6.5/7.4, 10 μM compound
Metric: Papp A→B at 10 µM (nm/s)
Give bare numbers, in nm/s.

Q: # input compound: Cc1ccc(F)cc1C[C@H](C)Nc1cc[nH]c(=O)c1-c1nc2cc3c(cc2[nH]1)C(=O)N(CCN1CCCC1)C3 [compound (II)] ; wanted: its Papp A→B at 10 µM
A: 4

* * *

- Assay Protocol: Pharmacokinetics study in CD-1 mice (IV, PO)
- Format: in vivo
- Condition Info: CD-1, mouse, plasma, po, 5 mg/kg, PO 5 mg/kg, time point 0.35, individual animals A-D
Metric: concentration at […] (ng/mL)
Numbers only, in ng/mL.

Q: # input molecule: Cc1ccc(F)cc1C[C@H](C)Nc1cc[nH]c(=O)c1-c1nc2cc3c(cc2[nH]1)C(=O)N(CCN1CCCC1)C3 [compound (II)] ; wanted: its concentration at […]
A: 1.21

* * *

- Test system: Karpas299
- Assay Protocol: Cell proliferation inhibition, ALCL line Karpas299
- Type: cell-based
- Condition Info: Homo sapiens, KARPAS-299; Table 3A; read-out: Cellular IC50 K-299
Metric: IC50 (nM)
Answers are plain numbers, in nM.

These recorded examples may help you get a feel for the data.
Cc1ccc(F)cc1C[C@H](C)Nc1cc[nH]c(=O)c1-c1nc2cc3c(cc2[nH]1)CN(CCN(C)C)C3=O [drawing 361]    155
Cc1ccc(F)cc1C[C@H](C)Nc1cc[nH]c(=O)c1-c1nc2cc3c(cc2[nH]1)C(=O)N(CCN1CCCC1)C3 [drawing 360]    81

Q: # input compound: C[C@@H](Cc1c(F)c(F)cc(F)c1F)Nc1cc[nH]c(=O)c1-c1nc2cc3c(cc2[nH]1)C(=O)N(C1CCN(C)CC1)C3 ; wanted: its IC50
A: 99

* * *

- Assay Protocol: Pharmacokinetics study in CD-1 mice (IV, PO)
- Assay type: in vivo
- Condition Info: CD-1, mouse, plasma, iv, 1 mg/kg, IV 1 mg/kg, time point 0.5, Mean
- Method: A comprehensive PK study was run in CD-1 strain of mice with IV (1 mg/kg) and PO (5 mg/kg) routes of drug delivery and analytical data collection at 10 time points over 24 hours (Medicilon, Study CRL0703). Blood samples were collected by removing the eyeballs at pre-dose and 0.083, 0.25, 0.5, 1, 2, 4, 6, 8, and 24 hours post-dose. The plasma samples and the dose formulation were stored at −20° C. until bioanalysis.
Metric: concentration at 0.5 h (ng/mL)
Give bare numbers, in ng/mL.

Q: # input compound: Cc1ccc(F)cc1C[C@H](C)Nc1cc[nH]c(=O)c1-c1nc2cc3c(cc2[nH]1)C(=O)N(CCN1CCCC1)C3 ; wanted: its concentration at 0.5 h
A: 32.9

* * *

- Assayed Target: CYP2C9 (Homo sapiens)
- Construct: purchased Cerep (contract assay, ADMET Study 13170)
- Sequence (P11712 whole entry): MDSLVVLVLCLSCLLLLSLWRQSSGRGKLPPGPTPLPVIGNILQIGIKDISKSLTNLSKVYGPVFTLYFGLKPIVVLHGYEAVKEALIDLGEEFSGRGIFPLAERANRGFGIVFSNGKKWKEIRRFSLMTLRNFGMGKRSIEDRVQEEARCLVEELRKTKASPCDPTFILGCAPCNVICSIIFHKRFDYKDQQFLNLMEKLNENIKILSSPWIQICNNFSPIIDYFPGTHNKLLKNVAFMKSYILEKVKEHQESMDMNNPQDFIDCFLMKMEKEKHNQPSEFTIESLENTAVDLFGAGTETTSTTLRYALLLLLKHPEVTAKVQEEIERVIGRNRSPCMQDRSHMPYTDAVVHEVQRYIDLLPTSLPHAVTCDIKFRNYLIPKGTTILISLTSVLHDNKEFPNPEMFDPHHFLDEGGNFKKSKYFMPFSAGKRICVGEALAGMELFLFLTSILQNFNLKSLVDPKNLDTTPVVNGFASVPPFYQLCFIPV
- Assay Protocol: CYP2C9 Inhibition (recombinant, MFC substrate)
- Format: in vitro ADME
- Condition Info: human, recombinant CYP2C9, probe MFC, 5.0E−06 M; Table 5B individual results; read-out: CYP2C9 % Inhibition of Control Values, 1st/2nd/3rd
Metric: activity at 5 µM (%)
One number for each entry, in %.

Q: # input molecule: Cc1ccc(F)cc1C[C@H](C)Nc1cc[nH]c(=O)c1-c1nc2cc3c(cc2[nH]1)C(=O)N(CCN1CCCC1)C3 ; wanted: its activity at 5 µM
A: 63.8

* * *

- Assayed Target: IGF1R (Homo sapiens)
- Construct: 6×His- or GST-tagged kinase domain fragments of the corresponding RTKs expressed in baculovirus system; host or cells: baculovirus system
- Sequence (P08069 999-1274 limits assumed): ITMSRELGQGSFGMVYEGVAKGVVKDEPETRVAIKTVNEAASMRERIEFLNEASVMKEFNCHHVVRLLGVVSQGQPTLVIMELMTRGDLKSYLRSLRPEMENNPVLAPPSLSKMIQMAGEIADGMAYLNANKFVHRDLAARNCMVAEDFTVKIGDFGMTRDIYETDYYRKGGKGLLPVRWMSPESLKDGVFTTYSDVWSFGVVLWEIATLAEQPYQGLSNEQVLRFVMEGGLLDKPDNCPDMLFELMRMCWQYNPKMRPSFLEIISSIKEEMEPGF
- Assay Protocol: IGF1R kinase assay
- Format: biochemical
- Condition Info: Table 2; read-out: Enzymatic IGF1R IC50
Metric: IC50

C[C@@H]1CCCN1CCN1Cc2cc3[nH]c(-c4c(N[C@@H](C)Cc5cc(F)cc(F)c5F)cc[nH]c4=O)nc3cc2C1=O [drawing 353]    > 1000 nM
C[C@@H](Cc1cc(F)cc(F)c1F)Nc1cc[nH]c(=O)c1-c1nc2cc3c(cc2[nH]1)CN(CCN(C)C)C3=O [drawing 356]    100 to 250 nM

Now look at this entry.
Q: # input compound: CNCCN1Cc2cc3[nH]c(-c4c(N[C@@H](C)Cc5cc(F)ccc5C)cc[nH]c4=O)nc3cc2C1=O [drawing 355] ; wanted: its IC50
A: 10 to 100 nM

Data provenance: patent US9249147B2
